Biological target: human orexin type 2 receptor (Homo sapiens, UniProt O43614)
Construct: expressed in transfected cells
Sequence (O43614 whole entry): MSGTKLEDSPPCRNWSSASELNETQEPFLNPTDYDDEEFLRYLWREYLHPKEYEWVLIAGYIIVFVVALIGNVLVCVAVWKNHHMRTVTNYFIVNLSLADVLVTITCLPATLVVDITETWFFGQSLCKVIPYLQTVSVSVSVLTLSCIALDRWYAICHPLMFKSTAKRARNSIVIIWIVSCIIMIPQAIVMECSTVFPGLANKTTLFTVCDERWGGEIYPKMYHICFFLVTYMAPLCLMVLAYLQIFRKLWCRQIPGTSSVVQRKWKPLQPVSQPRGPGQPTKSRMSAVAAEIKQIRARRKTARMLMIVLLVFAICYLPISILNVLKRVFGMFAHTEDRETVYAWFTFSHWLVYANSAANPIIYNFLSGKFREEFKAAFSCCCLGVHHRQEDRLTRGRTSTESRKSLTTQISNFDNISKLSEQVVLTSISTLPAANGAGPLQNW
Assay: Measurement of orexin type 2 receptor agonist activity (calcium indicator fluorescence, CHO cells forcibly expressing human OX2 receptor)
Type: cell-based
Details: compound at 3 μM; 0% = DMSO, 100% = orexin A (human) 10 nM
A collection of compounds and their measured OX2R agonist activity (3 μM, %)
Respond numerically; units are % and should not be typed.

- compound: "Cc1cccc(-c2cccc(C[C@H]3[C@@H](NS(=O)(=O)C4CC4)[C@@H](F)CN3C(=O)C3CCO3)c2F)c1 (stereo partly drawn) [Example 489]"
  display unit: "%"
  OX2R agonist activity (3 μM, %): 92
- compound: "CCS(=O)(=O)N[C@H]1[C@@H](F)CN(C(=O)C2CC2)[C@H]1Cc1cccc(-c2cc(F)cc(F)c2)c1F"
  display unit: "%"
  OX2R agonist activity (3 μM, %): 100
- compound: "CCS(=O)(=O)N[C@@H]1[C@H](Cc2cccc(-c3ccc(F)c(C)c3)c2F)N(C(=O)C2CCO2)CC1(F)F (stereo partly drawn) [Example 472]"
  display unit: "%"
  OX2R agonist activity (3 μM, %): 95

Input: Identify OX2R agonist activity (3 μM, %) associated with the compound `CCS(=O)(=O)N[C@H]1[C@@H](F)CN(C(=O)C2CC2)[C@H]1Cc1cccc(-c2cc(F)ccc2F)c1F`
Output: 98

Input: Identify OX2R agonist activity (3 μM, %) associated with the compound `CCS(=O)(=O)N[C@@H]1[C@H](Cc2cccc(-c3cccc(OC(F)F)c3)c2F)N(C(=O)C2CC2)CC1(F)F`
Output: 93

Input: Identify OX2R agonist activity (3 μM, %) associated with the compound `CS(=O)(=O)N[C@@H]1[C@H](Cc2cccc(-c3cccc(F)c3F)c2F)N(C(=O)[C@H]2CCO2)CC1(F)F`
Output: 94

Input: Identify OX2R agonist activity (3 μM, %) associated with the compound O=C(C1CCO1)N1C[C@H](F)[C@H](NS(=O)(=O)C2CC2)[C@@H]1Cc1cccc(-c2cccc(F)c2F)c1F (stereo partly drawn) [Example 494]
Output: 96

Input: Identify OX2R agonist activity (3 μM, %) associated with the compound `CCS(=O)(=O)N[C@@H]1[C@H](Cc2cccc(-c3ccccc3)c2F)N(C(=O)[C@H]2C[C@@H](F)C2)CC1(F)F`
Output: 94

Input: Identify OX2R agonist activity (3 μM, %) associated with the compound CCS(=O)(=O)N[C@H]1[C@@H](F)CN(C(=O)C2CCO2)[C@H]1Cc1cccc(-c2cccc(Cl)c2)c1F (stereo partly drawn) [Example 368]
Output: 95

Input: Identify OX2R agonist activity (3 μM, %) associated with the compound `Cc1cccc(-c2cccc(C[C@H]3[C@@H](NS(=O)(=O)N(C)C)C(F)(F)CN3C(=O)N(C)C)c2F)c1F`
Output: 95

Data provenance: patent US20230040770A1
